Target or test system: T1, Anti-CD28 Fab (SEQ ID NOs: 696, 697)
T1 construct: In the phage ELISA the Fab was biotinylated and captured on neutravidin coated plates
T1 sequence (VH, as listed by the source, chain 1 of 2): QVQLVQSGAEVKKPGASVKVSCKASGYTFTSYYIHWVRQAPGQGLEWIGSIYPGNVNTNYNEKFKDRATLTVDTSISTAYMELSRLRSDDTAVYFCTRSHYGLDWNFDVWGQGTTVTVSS
T1 sequence (VL, as listed by the source, chain 2 of 2): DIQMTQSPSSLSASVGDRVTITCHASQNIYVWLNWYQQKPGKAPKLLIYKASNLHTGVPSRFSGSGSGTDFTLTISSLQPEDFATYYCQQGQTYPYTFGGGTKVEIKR
Test summary: phage ELISA; Fab-coated wells pre-incubated with CD28 antigen as competitor, anti-M13 HRP detection;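 further: crude clonal phage supernatants screened by ELISA, comparing wells pre-treated with CD28 antigen in blocker against wells given blocker only, bound phage read via HRP-linked anti-M13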
Measured property: Anti-CD28 Fab signal in the presence of CD28 (phage binding ELISA)

Solved entries:
[[record]]
binder = "YCDGHSPEYMTKCL (tested as crude clonal phage supernatant) [Phage-744]"
val = 0.07

[[record]]
binder = "YCEGHSMEYMAKCL (tested as crude clonal phage supernatant) [Phage-745]"
val = 0.07


Problem: Check the records and state Anti-CD28 Fab signal in the presence of CD28 (phage binding ELISA) for YCMGHAPEYMEKCL (tested as crude clonal phage supernatant) [Phage-740]
Solution: 0.07
